assay-info: Toxicity liver stage against HepG2, at 10uM
Type: cell-based
Set-up: test concentration 10 uM, cell line HepG2-A16-CD81EGFP
cond: human, HepG2-A16-CD81EGFP cells; read-out: INHIBITION
endpoint-label: cytotoxicity at 10 µM

{"molecule": "CC(=O)OC1CN(c2nc3c(Cl)cccc3s2)C1", "cytotoxicity at 10 µM": "-0.745%"}
{"molecule": "Cc1cnc(N2CCC3(CC(=O)N(Cc4csc(C)n4)C3)C2)nc1 (configuration not stated)", "cytotoxicity at 10 µM": "-0.211%"}
{"molecule": "N#Cc1ccc(SCCOCCO)c(F)c1", "cytotoxicity at 10 µM": "0.513%"}
{"molecule": "CN(C)C(=O)c1cc(-c2cnc(N)nc2)nc2cc(F)ccc12", "cytotoxicity at 10 µM": "2.54%"}
{"molecule": "CCN(Cc1nc2c(cnn2C)c(=O)[nH]1)c1ccccc1", "cytotoxicity at 10 µM": "-7.36%"}

// for each molecule in input: emit cytotoxicity at 10 µM
1. CN1CC(=O)N(c2ccccc2)CC12CCN(CC1CC1)C2 (configuration not stated)
2. CN(CC(O)C1CC1)C(=O)c1ccc(-c2nc(C3CC3)n[nH]2)cc1 (configuration not stated)
3. O=C(Cc1cccc(O)c1)NCCNc1nccc(C(F)(F)F)n1
4. CN1CCN(C(=O)C2(S(C)(=O)=O)CCCC2)Cc2ccccc21
5. COC(=O)c1cccn1C1CCN(Cc2cccc(C(N)=O)c2)CC1
6. O=C(NCC1CCOC1)N1CCN(c2ncccn2)CC1 (configuration not stated)

4.42%
-5.09%
7.48%
-4.96%
-4.7%
-39.8%

Given the molecule `O=C(Cc1ccc2c(c1)CCC2)NC1CCN(Cc2ccccc2)CC1` , what is its reported cytotoxicity at 10 µM?
1.88%

---

assay-info: Toxicity liver stage against HepG2, at 10uM
Assay type: cell-based
Set-up: test concentration 10 uM, cell line HepG2-A16-CD81EGFP
cond: human, HepG2-A16-CD81EGFP cells; read-out: INHIBITION
endpoint-label: cytotoxicity at 10 µM (%)
One number for each entry, in %.

{"molecule": "Cn1ccc(C(=O)NCc2ccc(CN3CCCCC3)cc2)cc1=O", "assay-value": -12.4}
{"molecule": "Cc1nnc2n1CCN(C(=O)c1cnc(C3CC3)s1)C2", "assay-value": -5.19}
{"molecule": "Cn1nc(C2CCCN(C(=O)Cc3ccsc3)C2)c2nccnc21 (configuration not stated)", "assay-value": 4.68}
{"molecule": "CC(=O)N1[C@H](Cn2cncn2)C[C@@H]2CN(c3ccc(C)nn3)CC[C@@H]21", "assay-value": -13.4}
{"molecule": "Cc1cnn(CC2CN(Cc3csc(C(C)C)n3)CCO2)c1 (configuration not stated)", "assay-value": 5.58}

For the 6 molecules below, give their cytotoxicity at 10 µM values.
1. CC1(C)CN(CC(F)(F)F)CCN1CC(=O)N1CCCCC1
2. O=C(OCc1ccccc1)c1cccc(NC(=O)C2COCCO2)c1 (configuration not stated)
3. Cc1cc(CN(C)C(=O)c2ccc(F)cc2Br)no1
4. CN1CC(C(=O)NCc2ccc(Br)cc2F)CC1=O (configuration not stated)
5. c1cnc(N2CCCC3(CCN(c4ncccn4)C3)C2)nc1 (configuration not stated)
6. COc1cc(NCc2c(C)noc2C)c(OC)cc1Cl

[13.2, -0.488, 0.864, 9.01, -151, 47]

Hey, quick one: what's cytotoxicity at 10 µM for each of these?
1. CC(C)(C)CC(=O)NCC(=O)NS(=O)(=O)c1cccnc1
2. CCS(=O)(=O)c1ccccc1C(=O)N1CCCC(n2cccn2)C1 (configuration not stated)

[-3.13, -29.9]
